ASSAY_PROTOCOL: small-molecule microarray binders of probe aCHRDL2, primary screen, biochemical, biotinylated probe, 635/667 nm fluorescence (AID 1100)
DETAILS: higher = more signal
The label depends only on composite z-score: Criterion met if it is at least 0.1, Criterion not met if it is smaller.

[
  {
    "COMPOUND": "[N-]=[N+]=NCc1ccccc1[C@H]1OC(c2ccc(OCCCO)cc2)=N[C@@]1(Cc1ccccc1)C(=O)N1CCOCC1",
    "CATEGORY_LABEL": "Criterion met"
  },
  {
    "COMPOUND": "COCCOC(=O)N1C(=O)[C@@]2(c3cc(C#CC4=CCCCC4)ccc31)[C@H](c1ccc(OCCO)cc1)N1[C@H](c3ccccc3)[C@H](c3ccccc3)OC(=O)[C@H]1[C@@H]2C(=O)N1CCCCCCC1",
    "CATEGORY_LABEL": "Criterion met"
  },
  {
    "COMPOUND": "NC(=O)[C@@]1(CCS(=O)(=O)c2ccccc2)COC(c2ccc(OCCCO)cc2)=N1",
    "CATEGORY_LABEL": "Criterion met"
  },
  {
    "COMPOUND": "CC(C)C[C@H]1NC(=O)[C@@]23C(=O)N[C@@H](Cc4ccccc4)C2[C@H](C)[C@@]2(C)O[C@H]2C3/C=C/C/C=C\\CNC(=O)[C@@H]2CCCN2C1=O (stereo not given in full)",
    "CATEGORY_LABEL": "Criterion not met"
  },
  {
    "COMPOUND": "CC(C)C[C@@H]1NC(=O)C([C@@H](C)OCc2ccccc2)NC(=O)[C@@]23C(=O)N[C@@H](Cc4ccccc4)C2[C@H](C)[C@@]2(C)O[C@H]2C3/C=C/CC/C=C/CNC1=O (stereo not given in full)",
    "CATEGORY_LABEL": "Criterion not met"
  }
]

In: Please tell me: is the compound CC(C)CNC(=O)[C@@H]1c2ccccc2C(=O)N(C(C)C)[C@H]1c1ccc(CO)cc1 at or over 0.1 in terms of composite z-score?
Out: Criterion met

In: Could you tell me if the measured composite z-score of COCCOC(=O)N1C(=O)[C@@]2(c3cc(C#Cc4ccc(OC)cc4)ccc31)[C@H](c1ccc(OCCO)cc1)N1[C@H](c3ccccc3)[C@H](c3ccccc3)OC(=O)[C@H]1[C@@H]2C(=O)N1CCCCCCC1 reaches 0.1 or more?
Out: Criterion met

In: Could you please find out whether COCCCNC(=O)[C@@]1(Sc2ccc(C)cc2)CC(=O)N(C2CCCCC2)[C@@H]1c1ccc(CO)cc1I has composite z-score that meets 0.1 or exceeds it?
Out: Criterion met

In: Check the entry CC(=O)NCCCC[C@@H]1NC(=O)[C@@H]2C[C@H](C(=O)NCCCCCC[N+](C)(C)C)[C@H](c3ccc(O)cc3)N2C1=O : does composite z-score equal or exceed 0.1?
Out: Criterion not met

In: Given CC(C)C(=C=CC[C@@H](O)c1cccc(OCCO)c1)CCO , state whether its composite z-score is at least 0.1.
Out: Criterion met

###

Tested on: Plasmodium falciparum Sir2 (PF13_0152, Sir2A)
ASSAY_PROTOCOL: pfSir2 binders on small-molecule microarrays, primary screen, biochemical, small-molecule microarray, 635 nm fluorescence (AID 1098);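 further: score merges spot fluorescence intensity with its signal-to-noise ratio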
DETAILS: small-molecule microarray binding, fluorescence 635 nm; higher = more signal
Respond with Fulfilled for composite z-score values of 1 and above, Not fulfilled for values below.

Solved entries (count: 5):
[
  {
    "MOLECULE": "CN1C(=O)C2C=CC(C(O)c3ccc(-c4ccccc4)s3)N(Nc3ccccc3)C2C1=O (stereo unspecified)",
    "CATEGORY_LABEL": "Fulfilled"
  },
  {
    "MOLECULE": "CC(C)[Si](C#CCCCC#N)(O[C@H](c1ccccc1)c1cn([C@H](C)c2ccccc2)nn1)C(C)C",
    "CATEGORY_LABEL": "Not fulfilled"
  },
  {
    "MOLECULE": "COCCCN1C(=O)[C@@]2(Cc3ccccc31)c1ccccc1C(=O)N(Cc1ccccc1OC)[C@H]2c1ccc(CO)cc1",
    "CATEGORY_LABEL": "Not fulfilled"
  },
  {
    "MOLECULE": "COc1ccc([Si](C)(C)[C@H]2[C@H](CC(=O)N3Cc4ccccc4C[C@H]3CO)O[C@@]3(C(=O)N(Cc4cccc(N5C(=O)c6cccc7cccc5c67)c4)c4ccccc43)[C@@H]2C)cc1",
    "CATEGORY_LABEL": "Fulfilled"
  },
  {
    "MOLECULE": "CC(C)C[C@@H]1NC(=O)[C@H]2C[C@@H](C(=O)NCCCCCNC(=O)CS)[C@@H](c3ccc(O)cc3)N2C1=O",
    "CATEGORY_LABEL": "Fulfilled"
  }
]

Please look at the following molecule next.
In: Has COCCOC(=O)N1C(=O)[C@@]2(c3cc(C#CCCO)ccc31)[C@H](c1ccc(O)cc1)N1[C@H](c3ccccc3)[C@H](c3ccccc3)OC(=O)[C@H]1[C@@H]2C(=O)N1CCc2cc(OC)c(OC)cc2C1 a recorded composite z-score greater than or equal to 1?
Out: Fulfilled

###

TGT: Focal adhesion kinase 1 (Homo sapiens)
ASSAY_PROTOCOL: small-molecule microarray binders of FAK, primary screen, biochemical, 635/667 nm fluorescence, BSA, DTT (AID 1130);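 further: composite of spot emission at 667 nm and signal to noise over triplicate slides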
DETAILS: PTK2 binding, 635 nm fluorescence, higher = more signal
READOUT: composite z-score
Form rule: numeric answer, no unit written next to it.

The reported value for C/C=C/CN(C(=O)C#Cc1ccccc1)[C@H](CO[Si](C)(C)C(C)(C)C)c1ccccc1 in terms of composite z-score is -0.1

The compound COCCOC(=O)N1C(=O)[C@@]2(c3cc(C#CCC(C(=O)OC)C(=O)OC)ccc31)[C@H](C(=O)N1CCCCCCC1)[C@H]1C(=O)O[C@H](c3ccccc3)[C@H](c3ccccc3)N1[C@@H]2c1ccccc1OCCO showed composite z-score equal to 0.945

composite z-score in this record for C[N+](C)(C)CCCCCCNC(=O)[C@H]1C[C@H]2C(=O)NCC(=O)N2[C@H]1c1cccc(OCCO)c1 : -0.27

What the record says about COCCOC(=O)N1C(=O)[C@@]2(c3cc(C#Cc4ccc(OC)cc4)ccc31)[C@H](c1ccc(OCCO)cc1)N1[C@H](c3ccccc3)[C@H](c3ccccc3)OC(=O)[C@H]1[C@@H]2C(=O)N1CCCCCCC1 : composite z-score is 1.4

Quick note, composite z-score for C=CC[C@]1(C(=O)NCCCOC)N=C(c2ccc(OCCCO)cc2)O[C@H]1c1ccccc1 landed at 0.0442

Consider N#Cc1ccc(C(O)C2C=CC3C(=O)NC(=O)C3N2Nc2ccccn2)cc1 (configuration not stated) . Its measured composite z-score is -0.205

Looking up CC(C)C[C@@H]1NC(=O)[C@H]2C[C@@H](C(=O)NCCCCCCNC(=O)CS)[C@@H](c3ccc(O)cc3)N2C1=O , I found its composite z-score recorded as 0.87

###

ASSAY_PROTOCOL: PSAC antagonists in infected red cells, primary screen, cell-based, P. falciparum Indochina, OD700, 18 h (AID 1157)
DETAILS: P. falciparum Indochina infected erythrocytes, osmotic lysis OD700, 18 h; higher = more signal, called active from +8 up or from −8 down
z-score class ranges: category 1 (below 0.7), category 2 (0.7 to below 0.9), category 3 (0.9 or more)

Answered examples (3):
[
  {
    "MOLECULE": "NC(=O)NCC#Cc1ccc2c(c1)[C@]1(C(=O)N2)[C@H](C(=O)Nc2nc3ccccc3s2)[C@H]2C(=O)O[C@H](c3ccccc3)[C@H](c3ccccc3)N2[C@@H]1c1ccc(OCCO)cc1",
    "CATEGORY_LABEL": "category 2"
  },
  {
    "MOLECULE": "CCCCC(=C=CC[C@@H](O)c1ccc(OCCO)cc1)C[C@@H](O)c1ccccn1",
    "CATEGORY_LABEL": "category 2"
  },
  {
    "MOLECULE": "CC=CC(O)C1C=CC2C(=O)N(C)C(=O)C2N1NC(=O)OC(C)(C)C (stereo unspecified)",
    "CATEGORY_LABEL": "category 1"
  }
]

In: Into which category would you place COc1ccc([Si](C)(C)[C@H]2[C@H](CCO)O[C@@]3(C(=O)N(Cc4ccc(N5CCOC5=O)cc4)c4ccccc43)[C@@H]2C)cc1 ?
Out: category 3

In: Where would COC(=O)[C@@]1(CCC(=O)OC(C)(C)C)N=C(c2ccc(OCCCO)cc2)O[C@H]1c1ccccc1CN=[N+]=[N-] land among the classes by reported z-score?
Out: category 3

In: Hi, small favor: classify CCOC(=O)C1=CC[C@@H](c2ccccc2)N(S(=O)(=O)c2ccc(C)cc2)[C@H]1C#N by its z-score when you get a moment.
Out: category 3

In: // bin(item) where item = CO[C@H]1O[C@H](CO)[C@@H](OC(=O)Nc2ccc(C(F)(F)F)cc2)[C@H](OC(=O)Nc2ccccc2-c2ccccc2)[C@@H]1OC(=O)Nc1ccccc1-c1ccccc1
Out: category 2

In: Which class holds CC(C)CNC(=O)[C@@H]1c2ccccc2C(=O)N(Cc2ccccc2Cl)[C@H]1c1ccc(CO)cc1 ?
Out: category 1

In: For this molecule, which bin applies? COC(=O)C(CC#Cc1ccc2c(c1)[C@]1(C(=O)N2)[C@H](c2ccc(O)cc2)N2[C@H](c3ccccc3)[C@H](c3ccccc3)OC(=O)[C@H]2[C@@H]1C(=O)N1CCc2cc(OC)c(OC)cc2C1)C(=O)OC
Out: category 1
